- PROCEDURE_SUMMARY: Cluster Analysis Toxicity Screening (CATS), combined cell number, GST, MTT and ATP assays
- Format: cell-based
- CONDITION_NOTES: rat, H4IIE cells, 24 hour exposure; cell number, GST leakage, MTT, ATP; read-out: TC50, all parameters measured
OUTCOME_MEASURE: CC50 at 24 h

Please give the measured CC50 at 24 h for this molecule: CC(=O)N1CCN(c2ccc(OCC3COC(Cn4ccnc4)(c4ccc(Cl)cc4Cl)O3)cc2)CC1 (stereo not shown)
≥ 50 µM
